# System: HIV
# assay-summary: MT4 assay: antiviral HIV activity (cell protection, cell titer glo readout at 96 hours)
# Assay type: cell-based
# run-parameters: Human immunodeficiency virus 1, MT4, 96 h, MT4 cells, cell titer glo readout at 96 hours, 10 point dose response; read-out: HIV MT4 Assay IC50
# Protocol: […] Luciferase activity was measured 96 hours later by adding a cell titer glo (Promega, Madison, Wis.). […] Under the same condition, cytotoxicity of the compounds was determined using cell titer Glo™ (Promega, Madison, Wis.). […]
readout-name: IC50 (nM)

1. Cc1nc2c(cc(C(=O)N3CCC(c4c[nH]c5ccccc45)CC3)n2C)c(-c2cc(F)c3c(c2C)CCCO3)c1[C@H](OC(C)(C)C)C(=O)O :: 4.9

1 = COC[C@H]1CCCN1Cc1cc2c(-c3cc(F)c4c(c3C)CCCO4)c([C@H](OC(C)(C)C)C(=O)O)c(C)nc2n1C
2 = Cc1nc2c(cc(-c3nc(N4CCN(C(C)C)CC4)ns3)n2C)c(-c2cc(F)c3c(c2C)CCCO3)c1[C@H](OC(C)(C)C)C(=O)O
Req: IC50 comparison. Which is larger, 1 or 2 ? Label of pick, please.
Resp: 1
(1: 48.1 nM, 2: 6.3 nM)

###

# System: HIV
# assay-summary: MT4 assay: antiviral HIV activity (cell protection, cell titer glo readout at 96 hours)
# Format: cell-based
# run-parameters: Human immunodeficiency virus 1, MT4, 96 h, MT4 cells, cell titer glo readout at 96 hours, 10 point dose response; read-out: HIV MT4 Assay IC50
pIC50: −log10 of the molar value.
readout-name: pIC50

Worked examples follow.
1. Cc1nc2c(cc(-c3nnc(N4CCC(N5CCOCC5)CC4)o3)n2C)c(-c2cc(F)c3c(c2C)CCCO3)c1[C@H](OC(C)(C)C)C(=O)O [Example 318] :: 7.85
2. Cc1nc2c(cc(C(=O)N3CCN(c4ncccn4)CC3)n2C)c(-c2cc(F)c3c(c2C)CCCO3)c1[C@H](OC(C)(C)C)C(=O)O [Example 199] :: 7.56
3. Cc1nc2c(cc(-c3nnc(N4CCN(CCN5CCOCC5)CC4)o3)n2C)c(-c2cc(F)c3c(c2C)CCCO3)c1[C@H](OC(C)(C)C)C(=O)O [Example 340] :: 7.36
4. Cc1nc2c(cc(-c3nc(-c4ccc5c(cnn5C)c4)ns3)n2C)c(-c2cc(F)c3c(c2C)CCCO3)c1[C@H](OC(C)(C)C)C(=O)O (atropisomer, axis not shown; (M)) [Example 355] :: 8.33
5. Cc1nc2c(cc(-c3nnc(N4CCOC[C@@H]4C)o3)n2C)c(-c2cc(F)c3c(c2C)CCCO3)c1[C@H](OC(C)(C)C)C(=O)O [Example 329] :: 7.87
6. Cc1nc2c(cc(C(=O)NCc3cccnc3)n2C)c(-c2cc(F)c3c(c2C)CCCO3)c1[C@H](OC(C)(C)C)C(=O)O [Example 266] :: 6.84
7. Cc1nc2c(cc(-c3nnc(N(C)C)o3)n2C)c(-c2cc(F)c3c(c2C)CCCO3)c1[C@H](OC(C)(C)C)C(=O)O [Example 308] :: 7.85
8. Cc1nc2c(cc(-c3nnc(N4CCCN(C5COC5)CC4)o3)n2C)c(-c2cc(F)c3c(c2C)CCCO3)c1[C@H](OC(C)(C)C)C(=O)O [Example 302] :: 7.35

1 = CC1=CCN(c2cc(-c3cc4c(-c5cc(F)c6c(c5C)CCCO6)c([C@H](OC(C)(C)C)C(=O)O)c(C)nc4n3C)ccn2)CC1 (atropisomer, axis not shown) [Example 100]
2 = COc1ccccc1[C@H]1[C@@H]2CN(c3cc(-c4cc5c(-c6cc(F)c7c(c6C)CCCO7)c([C@H](OC(C)(C)C)C(=O)O)c(C)nc5n4C)ccn3)C[C@@H]21 (atropisomer, axis not shown) [Example 109]
Req: Would you kindly point out which of 1 and 2 has the smaller pIC50 figure? Label of pick, please.
Resp: 2
(2: 6.92, 1: 7.85)

a = Cc1nc2c(cc(C(=O)N3CCN(CC(=O)N(C)c4ccccc4)CC3)n2C)c(-c2cc(F)c3c(c2C)CCCO3)c1[C@H](OC(C)(C)C)C(=O)O [Example 219]
b = COCCCNC(=O)c1cc2c(-c3cc(F)c4c(c3C)CCCO4)c([C@H](OC(C)(C)C)C(=O)O)c(C)nc2n1C [Example 252]
Req: pIC50 comparison. Which is larger, a or b ? Label of pick, please.
Resp: b

###

# Tested on: HIV
# assay-summary: MT4 assay: antiviral HIV activity (cell protection, cell titer glo readout at 96 hours)
# Assay type: cell-based
# run-parameters: Human immunodeficiency virus 1, MT4, 96 h, MT4 cells, cell titer glo readout at 96 hours, 10 point dose response; read-out: HIV MT4 Assay IC50
readout-name: IC50 (nM)

1) Cc1nc2c(cc(-c3ccnc(-c4cnc5c(cnn5C)c4)c3)n2C)c(-c2ccc3c(c2C)CCCO3)c1[C@H](OC(C)(C)C)C(=O)O (atropisomer, axis not shown) :: 1.6

a = Cc1nc2c(cc(-c3nnc(N4C[C@@H](C)O[C@@H](C)C4)o3)n2C)c(-c2cc(F)c3c(c2C)CCCO3)c1[C@H](OC(C)(C)C)C(=O)O (racemic)
b = Cc1nc2c(cc(-c3ccnc(N4CC(N5CCOCC5)C4)c3)n2C)c(-c2cc(F)c3c(c2C)CCCO3)c1[C@H](OC(C)(C)C)C(=O)O
c = Cc1nc2c(cc(-c3nc(-c4ccc5c(cnn5C)c4)no3)n2C)c(-c2cc(F)c3c(c2C)CCCO3)c1[C@H](OC(C)(C)C)C(=O)O (atropisomer, axis not shown; (M))
d = Cc1nc2c(cc(-c3ccnc(-c4ccc5c(c4)C(C)(C)CO5)c3)n2C)c(-c2cc(F)c3c(c2C)CCCO3)c1[C@H](OC(C)(C)C)C(=O)O (atropisomer, axis not shown)
Req: Which order do these items take when sorted by rising IC50? List them. Respond with an ordered listing of the labels, as requested.
Resp: a, c, b, d

###

# System: HIV
# assay-summary: MT4 assay: antiviral HIV activity (cell protection, cell titer glo readout at 96 hours)
# Format: cell-based
# run-parameters: Human immunodeficiency virus 1, MT4, 96 h, MT4 cells, cell titer glo readout at 96 hours, 10 point dose response; read-out: HIV MT4 Assay IC50
pIC50: −log10 of the molar value.
readout-name: pIC50

1. Cc1nc2c(cc(C(=O)N(C)Cc3ccccc3)n2C)c(-c2cc(F)c3c(c2C)CCCO3)c1[C@H](OC(C)(C)C)C(=O)O :: 7.78
2. Cc1nc2c(cc(-c3ccnc(N4CCN(C)CC4)c3)n2C)c(-c2cc(F)c3c(c2C)CCCO3)c1[C@H](OC(C)(C)C)C(=O)O (atropisomer, axis not shown) :: 7.52
3. Cc1nc2c(cc(CN3CCCCC3)n2C)c(-c2cc(F)c3c(c2C)CCCO3)c1[C@H](OC(C)(C)C)C(=O)O (atropisomer, axis not shown; (M)) :: 6.60
4. Cc1nc2c(cc(-c3nnc(N4CCN5CCOC[C@@H]5C4)o3)n2C)c(-c2cc(F)c3c(c2C)CCCO3)c1[C@H](OC(C)(C)C)C(=O)O :: 7.78

a = Cc1nc2c(cc(-c3nnc(N4CCC(F)(F)CC4)o3)n2C)c(-c2cc(F)c3c(c2C)CCCO3)c1[C@H](OC(C)(C)C)C(=O)O
b = Cc1nc2c(cc(-c3ccnc(-c4ccc5[nH]c(=O)[nH]c5c4)c3)n2C)c(-c2cc(F)c3c(c2C)CCCO3)c1[C@H](OC(C)(C)C)C(=O)O (atropisomer, axis not shown)
Req: pIC50 comparison. Which is larger, a or b ? Label of pick, please.
Resp: a

###

# System: HIV
# assay-summary: MT4 assay: antiviral HIV activity (cell protection, cell titer glo readout at 96 hours)
# Assay type: cell-based
# run-parameters: Human immunodeficiency virus 1, MT4, 96 h, MT4 cells, cell titer glo readout at 96 hours, 10 point dose response; read-out: HIV MT4 Assay IC50
pIC50: −log10 of the molar value.
readout-name: pIC50

1. Cc1nc2c(cc(-c3nc(N4CCN(CC5CC5)CC4)ns3)n2C)c(-c2cc(F)c3c(c2C)CCCO3)c1[C@H](OC(C)(C)C)C(=O)O [Example 386] :: 8.23
2. Cc1nc2c(cc(C(=O)N[C@@H](C)c3ccccc3)n2C)c(-c2cc(F)c3c(c2C)CCCO3)c1[C@H](OC(C)(C)C)C(=O)O [Example 210] :: 8.30

A = Cc1nc2c(cc(-c3nnc(NCCN4CCN(C)CC4)o3)n2C)c(-c2cc(F)c3c(c2C)CCCO3)c1[C@H](OC(C)(C)C)C(=O)O [Example 341]
B = Cc1nc2c(cc(-c3ccnc(C(=O)NCc4c[nH]cn4)c3)n2C)c(-c2cc(F)c3c(c2C)CCCO3)c1[C@H](OC(C)(C)C)C(=O)O (atropisomer, axis not shown) [Example 150]
Req: pIC50 comparison. Which is larger, A or B ? Label of pick, please.
Resp: A
(A: 5.90, B: 5.03)
